Kindly supply the reported Kd values for the records listed here.
Molecular target: T1, cynomolgus monkey CTLA4-his protein (Acro biosystems, Cat#CT4-C5227) (cynomolgus monkey, UniProt G7PL88 36-161)
T1 construct: bought recombinant protein; also called Cynomolgus CTLA4-his; not shown: his tag
T1 sequence: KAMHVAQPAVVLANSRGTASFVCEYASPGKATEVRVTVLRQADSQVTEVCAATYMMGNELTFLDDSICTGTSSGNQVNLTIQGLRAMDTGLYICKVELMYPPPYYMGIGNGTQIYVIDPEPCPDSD
Test: SPR, Biacore T200; antibody captured, CTLA4-his as analyte
Experimental: Un-reacted moieties on the biosensor surface were blocked with ethanolamine. […] The antigen-antibody association kinetics was followed for 2 minutes and the dissociation kinetics was followed for 10 minutes. The association and dissociation curves were fit to a 1:1 Langmuir binding model using BIAcore evaluation software.
Your answer should be a plain number; it is taken to be in nM.

Any idea what its Kd is? The binder is mouse anti-CTLA4 monoclonal antibody D1B8 (antibody, V domains shown, mouse mAb purified from hybridoma supernatant) VH: QIQLQQSGPELVKPGASVKISCKASGYTFTDYYINWVKQRPGQGLEWIGWIYPGNNNTRYNEKFKGKATLTIDTSSSTAFMHLSSLTSEDSAVYFCARYYFDYWGQGTTLTVSS VL: DIQMTQSPSSLSASLGERISLTCRASQEITGYLSWLQQKPDGTIKRLIYAASTLDSGVPQRFSGSRSGSDYSLTISSLESEDFADYYCLQYASYPRTFGGGTKLEIK 1.18

Okay, and mouse anti-CTLA4 monoclonal antibody D1B6 (antibody, V domains shown, mouse mAb purified from hybridoma supernatant) VH: EVQLQQSGPELVKPGASVKLSCKASGNTFTTYVLNWVKQKPGQGLEWIGYFNPYNDGIKYNEKFKGKATLTSDKSSNTAYMELSSLTSEDSAVYYCARFEGGGYAMDYWGQGTSVTVSS VL: DIVLTQSPASLAVSLGQRATISCRASQSVGTSRNTYIHWYQQKLGQPPKLLIKYASDLESGVPARFSGSGSGTDFTLNIHPVEEEDTATYYCQHSWEIPYTFGGGTKLEIK ? 4.12

Same lookup for mouse anti-CTLA4 monoclonal antibody C1D1 (antibody, V domains shown, mouse mAb purified from hybridoma supernatant) VH: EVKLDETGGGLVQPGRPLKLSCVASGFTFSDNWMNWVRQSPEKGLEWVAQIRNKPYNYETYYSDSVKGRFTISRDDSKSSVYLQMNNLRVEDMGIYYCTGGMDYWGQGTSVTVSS VL: DIQMTQSPASLSASVGETVTITCGASEIIYGALNWYQQKQGKSPQLLIYGATNLADGMSSRFSGSGSGRQYSLKISSLHPDDAATYYCQKILSPPPWTFGGGTKLEIK , please. 0.183
